Below are IC50 measurements against MALT1 (Homo sapiens) drawn from the literature.
Labelling field: enter 1.0 if recorded IC50 is less than 2000 nM. Enter 0.0 if it equals or exceeds that cut-off.

structure: O=C(Nc1ccc(C(=O)N2CC(O)C2)c(Cl)c1)c1snc(-c2cccc3c(=O)[nH]ccc23)c1C1CC1
measuredTarget: MALT1 (Homo sapiens)
categoryLabel: 1.0

structure: Cn1nc(-c2cccc3c(=O)[nH]ccc23)c(C(F)(F)F)c1C(=O)Nc1cnc(-n2nccn2)c(C(F)(F)F)c1
measuredTarget: MALT1 (Homo sapiens)
categoryLabel: 1.0

structure: CC(=O)N1CC(C(=O)N(C)[C@@H](c2ccc(Nc3cnn(-c4ccccn4)c3C3CC3)cc2)C(F)(F)F)C1
measuredTarget: MALT1 (Homo sapiens)
categoryLabel: 1.0

structure: Cn1nc(-c2nccc3ncsc23)c(C(F)(F)F)c1C(=O)Nc1ccnc(C(F)(F)F)c1
measuredTarget: MALT1 (Homo sapiens)
categoryLabel: 0.0

structure: Cc1cccc(-c2nsc(C(=O)Nc3ccnc(C(F)(F)F)c3)c2C2CC2)c1
measuredTarget: MALT1 (Homo sapiens)
categoryLabel: 1.0

structure: O=C(Nc1cnc(-n2nccn2)c(Cl)c1)c1cc(-c2ccccc2)n(C(F)F)n1
measuredTarget: MALT1 (Homo sapiens)
categoryLabel: 0.0

structure: N#Cc1c(C(=O)Nc2cnc(-n3nccn3)c(Cl)c2)cnn1-c1cccc2ncccc12
measuredTarget: MALT1 (Homo sapiens)
categoryLabel: 1.0

structure: O=C(Nc1cnc(-n2nccn2)c(Cl)c1)c1cnn(-c2ccc(F)c3nccn23)c1C(F)(F)F
measuredTarget: MALT1 (Homo sapiens)
categoryLabel: 1.0

structure: Cc1ncnn1-c1ccc(NC(=O)c2cnn(-c3cncc4ccccc34)c2C(F)(F)F)cc1Cl
measuredTarget: MALT1 (Homo sapiens)
categoryLabel: 1.0

structure: Cc1nc(-n2nccn2)c(Cl)cc1NC(=O)c1cnn(-c2cnc(C#N)c3sccc23)c1C(F)(F)F
measuredTarget: MALT1 (Homo sapiens)
categoryLabel: 0.0

structure: N#Cc1ncc(NC(=O)c2cnn(-c3cccc4ccncc34)c2C(F)(F)F)cc1C(F)(F)F
measuredTarget: MALT1 (Homo sapiens)
categoryLabel: 0.0

structure: N#Cc1nccc2c(-n3ncc(C(=O)Nc4cnc(-n5nccn5)c(Cl)c4)c3C(F)(F)F)cccc12
measuredTarget: MALT1 (Homo sapiens)
categoryLabel: 1.0

structure: Cc1ccncc1-c1nsc(C(=O)Nc2ccnc(C(F)(F)F)c2)c1C1CC1
measuredTarget: MALT1 (Homo sapiens)
categoryLabel: 1.0

structure: Nc1ccc(-n2ncc(C(=O)Nc3cnc(-n4nccn4)c(Cl)c3)c2C(F)(F)F)cn1
measuredTarget: MALT1 (Homo sapiens)
categoryLabel: 1.0

structure: Cc1cccc(F)c1-n1ncc(C(=O)Nc2cnc(-n3nccn3)c(Cl)c2)c1C(F)(F)F
measuredTarget: MALT1 (Homo sapiens)
categoryLabel: 1.0

structure: Cc1nc(-n2nccn2)c(Cl)cc1NC(=O)c1cnn(-c2ccc(C(N)=O)c(N)n2)c1C(F)(F)F
measuredTarget: MALT1 (Homo sapiens)
categoryLabel: 0.0

structure: N#Cc1cc(NC(=O)c2cnn(-c3cccc4scnc34)c2C(F)(F)F)cnc1-n1nccn1
measuredTarget: MALT1 (Homo sapiens)
categoryLabel: 1.0

###

pIC50: −log10 of the molar value.
Below are pIC50 measurements against MALT1 (Homo sapiens, UniProt Q9UDY8) drawn from the literature.
Sequence (Q9UDY8 whole entry): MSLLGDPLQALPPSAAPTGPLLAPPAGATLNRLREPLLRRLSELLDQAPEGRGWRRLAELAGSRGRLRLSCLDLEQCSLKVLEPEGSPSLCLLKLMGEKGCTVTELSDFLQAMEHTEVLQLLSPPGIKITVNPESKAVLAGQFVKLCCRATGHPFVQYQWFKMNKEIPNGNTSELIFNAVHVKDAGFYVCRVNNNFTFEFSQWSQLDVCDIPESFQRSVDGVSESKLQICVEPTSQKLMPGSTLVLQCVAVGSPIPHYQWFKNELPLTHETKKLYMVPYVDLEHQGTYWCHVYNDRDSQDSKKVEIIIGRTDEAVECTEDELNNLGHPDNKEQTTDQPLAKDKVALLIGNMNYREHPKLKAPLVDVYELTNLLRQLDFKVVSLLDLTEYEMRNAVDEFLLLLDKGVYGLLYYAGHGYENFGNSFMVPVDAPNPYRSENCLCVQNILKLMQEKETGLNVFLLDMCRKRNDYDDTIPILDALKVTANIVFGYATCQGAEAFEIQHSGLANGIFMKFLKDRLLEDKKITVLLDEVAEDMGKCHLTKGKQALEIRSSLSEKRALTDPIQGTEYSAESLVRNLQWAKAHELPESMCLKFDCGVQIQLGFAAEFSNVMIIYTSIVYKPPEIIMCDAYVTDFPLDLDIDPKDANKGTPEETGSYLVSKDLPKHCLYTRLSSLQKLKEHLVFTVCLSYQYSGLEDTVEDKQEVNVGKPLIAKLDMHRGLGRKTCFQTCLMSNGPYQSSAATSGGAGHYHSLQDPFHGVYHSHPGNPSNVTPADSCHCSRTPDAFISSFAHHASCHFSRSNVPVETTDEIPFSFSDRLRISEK
experimentalEndpoint: pIC50

molecule: O=C(Nc1cnc(-n2nccn2)c(Cl)c1)c1snc(-c2ccccc2)c1I
measuredTarget: MALT1 (Homo sapiens, UniProt Q9UDY8)
experimentalEndpoint: pIC50
observedResult: ≥ 6.40
--
molecule: Cn1nc(-c2cccc3cnccc23)c(C(F)(F)F)c1C(=O)Nc1cnc(-n2nccn2)c(C#N)c1
measuredTarget: MALT1 (Homo sapiens, UniProt Q9UDY8)
experimentalEndpoint: pIC50
observedResult: > 6.30
--
molecule: CO[C@H](C)c1c(Nc2ccc([C@H](N(C)C(=O)C3CCS(=O)(=O)CC3)C(F)(F)F)cc2)cnc2nc(Cl)nn12
measuredTarget: MALT1 (Homo sapiens, UniProt Q9UDY8)
experimentalEndpoint: pIC50
observedResult: 6.00 to 7.00
--
molecule: CO[C@@H](C)c1c(Nc2ccc([C@H](N(C)C(=O)[C@H]3C[C@H](c4nnn[nH]4)C3)C(F)(F)F)cc2)cnc2nc(Cl)nn12
measuredTarget: MALT1 (Homo sapiens, UniProt Q9UDY8)
experimentalEndpoint: pIC50
observedResult: > 7.00
--
molecule: Cn1nc(-c2cccc3c(=O)[nH]ccc23)c(C(F)(F)F)c1C(=O)Nc1cnc(-n2nccn2)c(C(F)F)c1
measuredTarget: MALT1 (Homo sapiens, UniProt Q9UDY8)
experimentalEndpoint: pIC50
observedResult: > 6.30
--
molecule: O=C(Nc1cnc(-n2nccn2)c(Cl)c1)c1c(C(F)(F)F)c(-c2ccccc2)nn1C1COC1
measuredTarget: MALT1 (Homo sapiens, UniProt Q9UDY8)
experimentalEndpoint: pIC50
observedResult: 5.00 to 5.60
--
molecule: O=C(Nc1cnc(-n2nccn2)c(Cl)c1)c1cnn(-c2c(F)ccc3nccn23)c1C(F)(F)F
measuredTarget: MALT1 (Homo sapiens, UniProt Q9UDY8)
experimentalEndpoint: pIC50
observedResult: 6.71
--
molecule: Cn1nc(N2CCCc3ccccc32)c(C(F)(F)F)c1C(=O)Nc1ccnc(C(F)(F)F)c1
measuredTarget: MALT1 (Homo sapiens, UniProt Q9UDY8)
experimentalEndpoint: pIC50
observedResult: 5.60 to 6.30
--
molecule: Cn1nc(-c2cnc(CO)c3ccccc23)c(C(F)(F)F)c1C(=O)Nc1ccnc(C(F)(F)F)c1
measuredTarget: MALT1 (Homo sapiens, UniProt Q9UDY8)
experimentalEndpoint: pIC50
observedResult: 5.00 to 5.60
--
molecule: Cn1nc(-c2ccccc2Cl)c(C(F)(F)F)c1C(=O)Nc1ccnc(C(F)(F)F)c1
measuredTarget: MALT1 (Homo sapiens, UniProt Q9UDY8)
experimentalEndpoint: pIC50
observedResult: > 6.30
--
molecule: CO[C@@H](C)c1c(Nc2ccc([C@H](N(C)C(=O)C3CCN(C(C)=O)CC3)C(F)(F)F)cc2)cnc2nc(Cl)nn12
measuredTarget: MALT1 (Homo sapiens, UniProt Q9UDY8)
experimentalEndpoint: pIC50
observedResult: > 7.00
--
molecule: CN(C(=O)[C@H]1CC[C@H](C(=O)O)CC1)[C@@H](c1ccc(Nc2cnn(-c3cccnc3)c2C(F)(F)F)cc1)C(F)(F)F
measuredTarget: MALT1 (Homo sapiens, UniProt Q9UDY8)
experimentalEndpoint: pIC50
observedResult: 6.00 to 7.00
--
molecule: Cc1ncccc1-c1nsc(C(=O)Nc2ccnc(C(F)(F)F)c2)c1C1CC1
measuredTarget: MALT1 (Homo sapiens, UniProt Q9UDY8)
experimentalEndpoint: pIC50
observedResult: ≥ 6.40
--
molecule: Cc1nc(-n2nccn2)c(C#N)cc1NC(=O)c1cnn(-c2cccc3nnsc23)c1C(F)(F)F
measuredTarget: MALT1 (Homo sapiens, UniProt Q9UDY8)
experimentalEndpoint: pIC50
observedResult: 7.41
--
molecule: CO[C@H](C)c1c(NC(=O)Nc2cnc(-n3nccn3)c(C(F)(F)F)c2)cnc(C(F)F)c1Br (single isomer, unassigned)
measuredTarget: MALT1 (Homo sapiens, UniProt Q9UDY8)
experimentalEndpoint: pIC50
observedResult: 7.40
--
molecule: Cc1nc2c(C3(CF)CC3)c(NC(=O)Nc3ccc(-n4nccn4)c(Cl)c3)cnc2s1
measuredTarget: MALT1 (Homo sapiens, UniProt Q9UDY8)
experimentalEndpoint: pIC50
observedResult: 7.30 to 9.00
